- MEASURED TARGET: T1, Bak (residues 23-186) (UniProt Q16611 23-186)
- T1 construct: Bak, residues 23-186; Cloned in pET-28a(+) between NdeI and XhoI; buffer-exchanged to HBS-EP
- T1 sequence (looked up): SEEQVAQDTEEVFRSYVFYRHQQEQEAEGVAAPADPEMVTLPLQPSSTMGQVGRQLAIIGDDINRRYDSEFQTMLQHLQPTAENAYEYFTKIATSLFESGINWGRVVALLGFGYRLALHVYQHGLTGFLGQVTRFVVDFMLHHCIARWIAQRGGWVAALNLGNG
- EXPERIMENTAL DETAILS: SPR; Bid BH3 peptide amine-coupled to a CM5 chip (10 mM sodium acetate pH 4.0); proteins injected in HBS-EP (10 mM HEPES pH 7.5, 150 mM NaCl, 0.05 mM EDTA, 0.005% Tween 20) at 30 uL/min for 90 s; Biacore T200; affinity experiments, responses plotted against concentration
- CONDITION CONTEXT: both partners purified
OBSERVABLE: pKd
Convention used: pKd is expressed as -log10 of the molar concentration.

Lookup: Any idea what its pKd is? The binder is EDIIRNIARHLAQVGDSMDRS (BH3 peptide of Bid; also called Bid BH3 peptide; representative BH3 peptide; source: synthetic peptide) [synthetic BH3 peptide derived from Bid (residues 79-100)]
Found: 4.43
